assayed_target: adenosine 2a receptor (Homo sapiens)
Sequence (P29274 whole entry): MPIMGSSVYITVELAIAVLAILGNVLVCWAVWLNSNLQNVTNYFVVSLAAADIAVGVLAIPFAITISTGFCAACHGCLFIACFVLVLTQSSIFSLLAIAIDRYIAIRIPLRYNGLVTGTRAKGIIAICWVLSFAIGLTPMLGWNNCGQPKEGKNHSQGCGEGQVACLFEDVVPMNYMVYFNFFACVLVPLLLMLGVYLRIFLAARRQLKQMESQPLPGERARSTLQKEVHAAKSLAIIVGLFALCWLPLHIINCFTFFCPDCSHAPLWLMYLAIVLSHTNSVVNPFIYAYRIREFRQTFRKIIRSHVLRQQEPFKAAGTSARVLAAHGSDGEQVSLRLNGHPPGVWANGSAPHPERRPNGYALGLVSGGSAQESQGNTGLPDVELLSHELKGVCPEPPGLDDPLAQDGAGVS
protocol_notes: Agonist activity against adenosine 2a receptor (CHO cells, cAMP/SPAP reporter)
Assay type: cell-based
stated_conditions: CHO cells transfected with human receptor; basal cAMP via SPAP; mean of all the versions tested
Procedure: (1) Agonist activity against adenosine 2a, adenosine 1 and adenosine 3 receptor subtypes. The effect of test compounds was determined by their effects on basal levels of cAMP (A2a) or on forskolin-enhanced cAMP (A1 and A3) as reflected by changes in levels of SPAP.
endpoint: A2a EC50 as a ratio of that of NECA
Note: the reply should be a number with no unit written.

// sample CCn1nnc([C@H]2O[C@@H](n3cnc4c(N)nc(NCCNc5ccccn5)nc43)[C@H](O)[C@@H]2O)n1.O=C(O)C(F)(F)F [Example 55] , its A2a EC50 as a ratio of that of NECA was 5.77

// sample CCn1nnc(C2OC(n3cnc4c(NCCC5CCCCC5)nc(NC5CCNC5)nc43)C(O)C2O)n1 (stereo not shown) [Example 72] , its A2a EC50 as a ratio of that of NECA was 6.48

// sample CCn1nnc(C2OC(n3cnc4c(NCc5cccc(I)c5)nc(NC5CCC(N)CC5)nc43)C(O)C2O)n1.O=CO.O=CO (stereo not shown) [Example 100] , its A2a EC50 as a ratio of that of NECA was 5.71

// sample CCn1nnc(C2OC(n3cnc4c(NCCC(C)(C)C)nc(NC(CO)Cc5ccccc5)nc43)C(O)C2O)n1 (stereo not shown) [Example 52] , its A2a EC50 as a ratio of that of NECA was 9.90

// sample CCC(CC)Nc1nc(NCCN2CCCCC2)nc2c1ncn2C1OC(c2nnn(C(C)C)n2)C(O)C1O.O=CO.O=CO (stereo not shown) [Example 68] , its A2a EC50 as a ratio of that of NECA was 3.50

// sample CCC(CC)Nc1nc(NCCN2CCOCC2)nc2c1ncn2C1OC(c2nnn(C(C)C)n2)C(O)C1O.O=CO.O=CO (stereo not shown) [Example 70] , its A2a EC50 as a ratio of that of NECA was 7.24

// sample CCC(CC)Nc1nc(NCCc2cn(C)cn2)nc2c1ncn2[C@@H]1O[C@H](c2nnn(C)n2)[C@@H](O)[C@H]1O.O=CO [Example 33] , its A2a EC50 as a ratio of that of NECA was 0.16

// sample CC(C)n1nnc([C@H]2O[C@@H](n3cnc4c(N[C@H](CO)Cc5ccccc5)nc(N[C@H]5CCNC5)nc43)[C@H](O)[C@@H]2O)n1.O=CO.O=CO [Example 64] , its A2a EC50 as a ratio of that of NECA was 2.54

// sample CCn1nnc([C@H]2O[C@@H](n3cnc4c(N)nc(NC5CC6CCC5C6)nc43)[C@H](O)[C@@H]2O)n1.O=C(O)C(F)(F)F (stereo partly shown) [Example 19] , its A2a EC50 as a ratio of that of NECA was 0.21

// sample CC(=O)O.CCC(CC)Nc1nc(NCCc2cn(C)cn2)nc2c1ncn2[C@@H]1O[C@H](c2nnn(CC)n2)[C@@H](O)[C@H]1O [Example 6] , its A2a EC50 as a ratio of that of NECA was 0.14

// sample Cn1nnc(C2OC(n3cnc4c(NC5CCCC5)nc(NC(CO)Cc5ccccc5)nc43)C(O)C2O)n1 (stereo not shown) [Example 36] , its A2a EC50 as a ratio of that of NECA was 0.99

// sample CC(=O)O.CC(=O)O.CCn1nnc(C2OC(n3cnc4c(NCCN5CCOCC5)nc(NCCc5cn(C)cn5)nc43)C(O)C2O)n1 (stereo not shown) [Example 50] , its A2a EC50 as a ratio of that of NECA was 1.48

// sample CCn1nnc([C@H]2O[C@@H](n3cnc4c(N)nc(NC5CCCC5)nc43)[C@H](O)[C@@H]2O)n1.O=C(O)C(F)(F)F.O=C(O)C(F)(F)F [Example 12] , its A2a EC50 as a ratio of that of NECA was 0.57
